Provenance of the data: ChEMBL document CHEMBL1133417

Record form. Attribute: Ki. Fill in for each entry.
Molecular target: Serotonin 2 (5-HT2) receptor (Rattus norvegicus, UniProt P30994+P08909+P14842)
Assay: Binding affinity for 5-hydroxytryptamine 2 receptor from striata of male Wistar rats by displacement of [3H]ketanserin
Format: protein assay
Quote the value and follow it with the unit of measurement.

O=C(NC[C@@H]1CCCN1CCc1ccccc1)C1CCCCC1 ... 240 nM l-1
COc1cc2c(c(C(=O)NC[C@@H]3CCCN3CCc3ccccc3)c1)OCC2 ... 660 nM l-1
CSc1cccc(C(=O)NC[C@@H]2CCCN2CCc2ccccc2)c1 ... 160 nM l-1
CSc1cc2c(c(C(=O)NC[C@H]3CCCN3CCc3ccccc3)c1)OCC2 ... 430 nM l-1
COc1ccc(SC)cc1C(=O)NC[C@@H]1CCCN1CCc1ccccc1 ... 170 nM l-1

Next, consider the following compound.
Give Ki for `O=C(NC[C@@H]1CCCN1CCc1ccccc1)c1ccccc1`
430 nM l-1

====

Target: Serotonin 2 (5-HT2) receptor (Rattus norvegicus, UniProt P30994+P08909+P14842)
Experiment: Binding affinity for 5-hydroxytryptamine 2 receptor from striata of male Wistar rats by displacement of [3H]ketanserin
Type: protein assay
Conditions: read-out: Ki
readout: Ki (nM)
Answers are plain numbers, in nM.

CCCCN1CCC[C@H]1CNC(=O)c1cc(Cl)cc2c1OCCN2C ... 300
CN1CCOc2c(C(=O)NC[C@@H]3CCCN3CCc3ccccc3)cc(Cl)cc21 ... 280

--- query ---
Specify measured Ki for `CCCCN1CCC[C@@H]1CNC(=O)c1cc(Cl)cc2c1OCCN2C` .
86

====

Biological target: 5-hydroxytryptamine receptor 1A (Rattus norvegicus, UniProt P19327)
Sequence (P19327 whole entry): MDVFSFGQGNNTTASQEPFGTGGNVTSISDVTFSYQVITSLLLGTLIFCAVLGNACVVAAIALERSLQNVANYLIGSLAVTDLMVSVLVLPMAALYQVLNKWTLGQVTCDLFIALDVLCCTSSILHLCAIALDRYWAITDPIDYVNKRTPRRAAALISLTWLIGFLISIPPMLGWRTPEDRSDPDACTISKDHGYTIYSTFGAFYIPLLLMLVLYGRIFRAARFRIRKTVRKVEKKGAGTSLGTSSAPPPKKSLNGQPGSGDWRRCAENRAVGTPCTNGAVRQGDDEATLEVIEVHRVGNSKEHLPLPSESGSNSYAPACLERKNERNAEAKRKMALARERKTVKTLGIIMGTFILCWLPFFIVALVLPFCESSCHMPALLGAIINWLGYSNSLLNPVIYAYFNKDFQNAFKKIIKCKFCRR
readout: log10(Ki) (log10 of the value in nM)
For clarity, the numbers are log10 values of Ki expressed in nM.

COc1cc2c(c(C(=O)NC[C@@H]3CCCN3CCc3ccccc3)c1)OCC2 ... 1.32
CSc1cc2c(c(C(=O)NC[C@H]3CCCN3CCc3ccccc3)c1)OCC2 ... 2.00
COc1ccc(SC)cc1C(=O)NC[C@@H]1CCCN1CCc1ccccc1 ... 1.38

Look up log10(Ki) for the entries below, preserving their order.
1. O=C(NC[C@@H]1CCCN1CCc1ccccc1)C1CCCCC1
2. O=C(NC[C@H]1CCCN1CCc1ccccc1)C1CCCCC1

1: -0.31; 2: 2.28

Recall and state the measured log10(Ki) for `CSc1cccc(C(=O)NC[C@H]2CCCN2CCc2ccccc2)c1` .
2.04

====

Molecular target: D(2) dopamine receptor (Homo sapiens, UniProt P14416)
Sequence (P14416 whole entry): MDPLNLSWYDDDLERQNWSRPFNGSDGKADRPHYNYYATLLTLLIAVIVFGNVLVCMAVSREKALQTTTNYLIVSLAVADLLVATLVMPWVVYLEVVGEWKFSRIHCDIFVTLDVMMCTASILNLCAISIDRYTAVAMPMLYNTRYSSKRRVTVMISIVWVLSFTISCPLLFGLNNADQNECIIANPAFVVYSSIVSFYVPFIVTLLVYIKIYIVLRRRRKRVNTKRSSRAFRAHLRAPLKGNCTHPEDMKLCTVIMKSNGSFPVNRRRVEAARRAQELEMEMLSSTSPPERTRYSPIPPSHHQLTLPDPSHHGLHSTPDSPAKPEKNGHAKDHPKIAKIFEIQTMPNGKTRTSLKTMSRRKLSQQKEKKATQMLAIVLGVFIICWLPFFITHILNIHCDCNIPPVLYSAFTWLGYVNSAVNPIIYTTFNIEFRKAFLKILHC
Assay: Binding affinity for Dopamine receptor D2 by displacement of [3H]-spiperone
readout: pKi
Numbers only, as −log10 of the molar value.

O=C(c1ccc(F)cc1)C1CCN(CCn2c(=O)[nH]c3ccccc3c2=O)CC1 [KETANSERIN] ... 6.62
COc1cc2c(c(C(=O)NC[C@@H]3CCCN3CCc3ccccc3)c1)OCC2 ... 6.92
CCCCN1CCC[C@H]1CNC(=O)c1cc(Cl)cc2c1OCCN2C ... 7.92
CSc1cc2c(c(C(=O)NC[C@H]3CCCN3CCc3ccccc3)c1)OCC2 ... 8.17
CCCCN1CCC[C@@H]1CNC(=O)c1cc(Cl)cc2c1OCCN2C ... 6.20

Identify measured pKi corresponding to `COc1ccc(SC)cc1C(=O)NC[C@@H]1CCCN1CCc1ccccc1`
6.34
